// pIC50 lookup, one value per entry
target: human PI3Kγ (recombinant GST-p110γ) (Homo sapiens, UniProt P48736); construct: Residues 38-1102 of human PI3Kγ are subcloned into the BamH1 and EcoR1 sites of the transfer vector pAcG2T; assay: in vitro kinase assay (Scintillation Proximity Assay), PI3K gamma isoform; details: SPA, phosphatidylinositol substrate, 60 minutes room temperature
Sequence (P48736 38-1102): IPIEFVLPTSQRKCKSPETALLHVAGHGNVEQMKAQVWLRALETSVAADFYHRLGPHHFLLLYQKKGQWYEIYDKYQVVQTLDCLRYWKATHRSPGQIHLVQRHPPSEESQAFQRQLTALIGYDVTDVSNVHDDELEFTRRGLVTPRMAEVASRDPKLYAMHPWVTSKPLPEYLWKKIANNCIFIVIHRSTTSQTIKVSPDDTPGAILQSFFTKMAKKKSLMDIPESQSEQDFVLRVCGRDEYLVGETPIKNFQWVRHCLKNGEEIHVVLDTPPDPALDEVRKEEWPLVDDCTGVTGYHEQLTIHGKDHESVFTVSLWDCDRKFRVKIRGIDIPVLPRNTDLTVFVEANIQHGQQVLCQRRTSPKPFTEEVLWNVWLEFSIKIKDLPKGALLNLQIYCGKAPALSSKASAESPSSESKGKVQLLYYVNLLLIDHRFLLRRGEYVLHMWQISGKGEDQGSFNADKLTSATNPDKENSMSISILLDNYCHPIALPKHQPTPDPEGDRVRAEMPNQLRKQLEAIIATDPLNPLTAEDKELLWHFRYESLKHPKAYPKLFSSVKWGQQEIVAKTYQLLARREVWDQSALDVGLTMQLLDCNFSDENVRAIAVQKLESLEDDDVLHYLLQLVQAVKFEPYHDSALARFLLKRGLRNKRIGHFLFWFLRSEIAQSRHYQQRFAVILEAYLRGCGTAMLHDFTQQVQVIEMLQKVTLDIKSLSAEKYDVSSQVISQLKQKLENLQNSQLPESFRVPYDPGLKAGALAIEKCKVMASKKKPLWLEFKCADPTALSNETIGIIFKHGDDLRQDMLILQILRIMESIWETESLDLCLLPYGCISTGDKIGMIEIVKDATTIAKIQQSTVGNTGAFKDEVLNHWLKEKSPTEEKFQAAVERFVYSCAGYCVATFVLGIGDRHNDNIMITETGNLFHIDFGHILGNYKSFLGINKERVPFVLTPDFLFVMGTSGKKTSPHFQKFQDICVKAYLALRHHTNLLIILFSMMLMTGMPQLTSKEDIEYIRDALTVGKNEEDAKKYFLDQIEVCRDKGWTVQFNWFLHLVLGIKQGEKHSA
In simple prose, pIC50 is minus the logarithm base ten of a concentration in moles per litre.

These solved cases illustrate the format of a correct answer.
>  <chemicalString>
CCC(C)(C)NC(=O)CCNC(=O)Nc1nc(C)c(-c2ccc(S(C)(=O)=O)c(F)c2)s1

>  <tgt>
human PI3Kγ (recombinant GST-p110γ) (Homo sapiens, UniProt P48736)

>  <pIC50>
7.77

$$$$
>  <chemicalString>
CCn1nnc(CNC(=O)Nc2nc(C)c(-c3ccc(S(C)(=O)=O)c(F)c3)s2)n1

>  <tgt>
human PI3Kγ (recombinant GST-p110γ) (Homo sapiens, UniProt P48736)

>  <pIC50>
7.77

$$$$
>  <chemicalString>
Cc1nc(NC(=O)NCC(=O)N(C)C(C)C)sc1-c1ccc(S(C)(=O)=O)c(F)c1

>  <tgt>
human PI3Kγ (recombinant GST-p110γ) (Homo sapiens, UniProt P48736)

>  <pIC50>
7.74

$$$$
>  <chemicalString>
Cc1nc(NC(=O)NCCc2nnn(C(C)C)n2)sc1-c1ccc(S(C)(=O)=O)c(F)c1

>  <tgt>
human PI3Kγ (recombinant GST-p110γ) (Homo sapiens, UniProt P48736)

>  <pIC50>
7.25

$$$$

--- query ---
Data request, read-out pIC50, for Cc1nc(NC(=O)NCc2nnn[nH]2)sc1-c1ccc(S(C)(=O)=O)c(F)c1
8.15
